Documented binding signal across a set of binders
- STUDY_SYSTEM: MSI1 full-length (mouse, UniProt Q61474 1-362)
- Sequence (Q61474 whole entry): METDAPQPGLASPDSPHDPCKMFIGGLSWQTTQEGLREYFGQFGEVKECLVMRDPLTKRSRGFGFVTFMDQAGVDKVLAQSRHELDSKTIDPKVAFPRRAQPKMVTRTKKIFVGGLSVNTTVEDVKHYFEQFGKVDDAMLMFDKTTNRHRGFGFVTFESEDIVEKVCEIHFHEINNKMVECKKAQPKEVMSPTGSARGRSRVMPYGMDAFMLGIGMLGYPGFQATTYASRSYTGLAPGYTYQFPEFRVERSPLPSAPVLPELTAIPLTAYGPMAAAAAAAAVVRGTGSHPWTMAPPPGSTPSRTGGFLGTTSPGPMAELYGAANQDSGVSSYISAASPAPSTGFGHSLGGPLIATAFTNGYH
- METHOD_DESCRIPTION: nsRBNS (natural sequence RNA bind-n-seq); RBNS binding buffer (assumed for nsRBNS): 25 mM Tris pH 7.5, 150 mM KCl, 3 mM MgCl2, 0.01% Triton X-100, 500 ug/ml BSA, 20 U/ml SUPERase-In, 4 C; UNK is unkempt and MSI1 is Musashi-1; names of the RNAs are library labels; protein concentration not given here; high values mean tight binding
In all, about 5,800 sequences were measured (“enrichment r”: median about 0.54, highest 2% from about 16 on). The list comes from a sample in which the highest values are over-represented; it also holds close analogues and randomly drawn sequences.
# output: bare number, implied unit enrichment R

// below: answered binders
BINDER	UNITS_OF_MEASURE	VALUE_OBSERVED
chr1:15430058:15430159:+|3pUTR|ENSG00000142634|msi1|FALSE|unique (ssRNA) RNA: GGGAGUUCUACAGUCCGACGAUCCCUGGAAGCUACGCGGACUUGCAGAGGUUUUAUUUUUUGGCCUUAGAAUCUGCAGAAAUUAGGAGGCACCGAGCCCAGCGCAGCAGCCUCGGACCCGGAUUGCGUUUGCCUUAGCGGAUACAACAGAGGAUUGAGCAUCA	enrichment R	0.989
chr2:108783740:108783841:+|CDS_3pUTR|ENSG00000153201|msi1_unk|FALSE|overlapping (ssRNA) RNA: GGGAGUUCUACAGUCCGACGAUCCAAUAAUUCUCAAUUUGUUAUAACACUGAAGAAAGCAGAACAUUUGGACUUUAAGCAUGUAGUAUUUGGGUUUGUUAAGGAUGGCAUGGAUACUGUGAAAAAGAUUGAAUCAUUUGGUUCCAACAGAGGAUUGAGCAUCA	enrichment R	0.864

Next binder, please.
Asked: Any idea what its binding signal is? The binder is chr3:44491765:44499181:-|three_prime_utr|ENSG00000178917|control|control|control (ssRNA) RNA: GGGAGUUCUACAGUCCGACGAUCACUAAUCACAGUGGAGACCAUACCUACUUGCUUUUCCUUGGGUCACUAAGGUGGGAGAGUAGGUGCAACUUAGUCUGAUCCUUACUUAGUAGGAAAUUGGGGAUUACAUCUGUCAUUAACCAACAGAGGAUUGAGCAUCA
Given back: 0.646
